- target.desc: T1, His-tagged PDGFRa extracellular domain (UniProt P16234 24-528, limits assumed)
- T1 construct: extracellular domain; also called c-Kit family member; not shown: His tag
- test.name: ELISA, His-tagged extracellular domain coated
experimental.endpoint: binding result

>>> readout_value("hSR1-3 (antibody, human IgG1, kappa, V domains shown, also called humanized SR1-3; hSR1-H2b / hSR1-L2) VH: QVQLVQSGAEVKKPGASVKVSCKASGYTFTSYNMHWVRQAPGQGLEWMGVIYSGNGDTSYAQKFQGRVTMTADKSTSTAYMELSSLRSEDTAVYYCARERDTRFGNWGQGTLVTVSS VL: DIQLTQSPSSLSASVGDRATITCRASESVDIYGNSFMHWYQQKPGKAPKLLIYLASNLESGVPSRFSGSGSGTDFTLTISSVQPEDFATYYCQQNNEDPYTFGQGTKLEIKR")
"no binding"
>>> readout_value("hSR1-6 (antibody, human IgG1, kappa, V domains shown, also called humanized SR1-6; hSR1-H3 / hSR1-L2r) VH: QVQLVQSGAEVKKPGASVKMSCKASGYTFTSYNMHWVRQAPGQGLEWIGVIYSGNGDTSYAQKFQGRATLTADTSTSTAYMELSSLRSEDTAVYYCARERDTRFGNWGQGTLVTVSS VL: DIQLTQSPSSLSASVGDRATITCRASESVDIYGNSFMHWYQQKPGKAPKLLIYLASNLESGVPSRFSGSGSRTDFTLTISSVQPEDFATYYCQQNNEDPYTFGQGTKLEIKR")
"no binding"
